Below: a set of entries, each annotated with reported koff.
- systemUnderTest: T1, hRET.mmh (human, UniProt P07949 29-635, biotinylated in the ELISA of Example 4 (biot-hRET.mmh); not in the SPR of Example 3)
- T1 construct: also called biot-hRET.mmh; soluble monomeric human RET
- experimentalDetails: SPR Biacore T200, mAb capture, 37 C
Write the number in s⁻¹ without appending the unit.

Consider the reported koff for these binders:
[
  {
    "binder": "H4H8046P (antibody, human IgG4, V domains shown, human IgG4 Fc (H4H prefix)) VH: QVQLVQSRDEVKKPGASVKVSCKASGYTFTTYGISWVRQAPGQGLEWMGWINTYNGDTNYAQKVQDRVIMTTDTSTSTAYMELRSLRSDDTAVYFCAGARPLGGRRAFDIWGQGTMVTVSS VL: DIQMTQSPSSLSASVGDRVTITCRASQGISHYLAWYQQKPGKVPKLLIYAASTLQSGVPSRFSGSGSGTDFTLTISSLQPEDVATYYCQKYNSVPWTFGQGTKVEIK",
    "koff / s⁻¹": 0.0013
  },
  {
    "binder": "H4H8076P (antibody, human IgG4, V domains shown, human IgG4 Fc (H4H prefix)) VH: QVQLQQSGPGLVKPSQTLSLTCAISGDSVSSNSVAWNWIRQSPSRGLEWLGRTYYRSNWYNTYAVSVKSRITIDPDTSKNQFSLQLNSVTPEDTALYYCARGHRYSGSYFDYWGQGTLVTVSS VL: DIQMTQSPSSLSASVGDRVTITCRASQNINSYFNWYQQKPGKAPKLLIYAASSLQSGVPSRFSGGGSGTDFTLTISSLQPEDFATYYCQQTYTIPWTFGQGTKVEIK",
    "koff / s⁻¹": 0.00136
  }
]

# input for lookup
Return value of koff for input H4H8066P (antibody, human IgG4, V domains shown, human IgG4 Fc (H4H prefix)) VH: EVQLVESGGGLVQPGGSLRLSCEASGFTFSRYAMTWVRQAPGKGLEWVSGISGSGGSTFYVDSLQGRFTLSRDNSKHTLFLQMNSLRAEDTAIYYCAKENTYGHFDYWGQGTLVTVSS VL: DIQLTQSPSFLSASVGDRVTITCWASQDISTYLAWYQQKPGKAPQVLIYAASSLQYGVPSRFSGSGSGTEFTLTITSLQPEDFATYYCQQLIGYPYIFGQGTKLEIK , no commentary.
0.00106
